Data provenance: patent US12162863B2

MEASUREMENT_TARGET: human STING (Homo sapiens, UniProt Q86WV6)
Sequence (Q86WV6 whole entry H232R): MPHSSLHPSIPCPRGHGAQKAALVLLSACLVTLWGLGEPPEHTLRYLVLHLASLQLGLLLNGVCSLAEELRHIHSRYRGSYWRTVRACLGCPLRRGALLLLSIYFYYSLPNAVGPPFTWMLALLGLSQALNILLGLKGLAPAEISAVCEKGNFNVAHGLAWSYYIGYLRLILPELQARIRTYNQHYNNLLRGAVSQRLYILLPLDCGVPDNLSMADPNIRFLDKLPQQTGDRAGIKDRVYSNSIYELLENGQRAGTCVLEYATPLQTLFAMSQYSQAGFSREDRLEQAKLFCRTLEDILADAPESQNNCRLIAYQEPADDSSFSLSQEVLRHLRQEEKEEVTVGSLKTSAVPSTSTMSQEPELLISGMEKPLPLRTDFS
TEST_NAME: Fluorescence Thermal Shift assay
Type: binding
CONDITIONS_USED: 50 μM compound; STING 0.1 mg/ml; 20 minutes preincubation; read-out: [hSTING] FTS, ΔTm [° C.] for 50 μM
VALUE_KIND: ΔTm at 50 µM

Examples with answers:
INSERT INTO assay_data (smiles_text, endpoint_value) VALUES
  ('O=c1c(CN(CCCCn2ccnc2)Cc2ccncc2)coc2ccccc12', '< 2.5 °C'),
  ('O=c1c(CN(CCCn2ccccc2=O)Cc2ccncc2)coc2c1ccc1ccccc12', '< 2.5 °C'),
  ('Cc1ccc2c(=O)c(CN(CCCn3cnc4c(=O)[nH]cnc43)Cc3ccncc3)c(C)oc2c1C', '> 2.5 °C'),
  ('COc1cc(CN(CCCn2ccnc2)Cc2c(C)oc3ccccc3c2=O)ccn1', '< 2.5 °C'),
  ('Cc1ccc2c(=O)c(CN(CCCn3cnc4c(N)ncnc43)Cc3ccncc3)c(C)oc2c1C', '> 2.5 °C');

// query So what does the record say about ΔTm at 50 µM for Cc1oc2cc(N3CCN(C)CC3)c(F)cc2c(=O)c1CN(CCCn1cnc2cncnc21)Cc1ccncc1 ?
// result > 2.5 °C

// query So what does the record say about ΔTm at 50 µM for O=C1CCCN1CCCN(Cc1ccncc1)Cc1coc2ccccc2c1=O ?
// result < 2.5 °C

// query So what does the record say about ΔTm at 50 µM for COc1cc(CN(CCCc2cccnc2)Cc2nn(C)c3ccccc3c2=O)ccn1 ?
// result > 2.5 °C

// query So what does the record say about ΔTm at 50 µM for O=c1c(CN(CCCn2ccnc2)Cc2ccncc2)coc2ccc(F)cc12 ?
// result > 2.5 °C

// query So what does the record say about ΔTm at 50 µM for O=c1c(CN(CCCn2cnc3ccccc32)Cc2ccncc2)coc2ccccc12 ?
// result > 2.5 °C

// query So what does the record say about ΔTm at 50 µM for COc1cc(CN(CCCc2cc[nH]c(=O)c2)Cc2coc3c(ccc4ccccc43)c2=O)ccn1 ?
// result > 2.5 °C

// query So what does the record say about ΔTm at 50 µM for COc1cc(CN(CCCn2cnc3ccccc32)Cc2cn(C)c3ccccc3c2=O)ccn1 ?
// result > 2.5 °C
